The measurements presented in this section are drawn from patent US20260365670A1.

# reported IC50; entries follow
assayTarget: EGFR Exon19Del/T790M (Homo sapiens, UniProt P00533, DEL746-750/T790M)
Construct: purchased Carna Bio
Sequence (P00533 with tags, fused parts or gaps DEL746-750/T790M limits assumed): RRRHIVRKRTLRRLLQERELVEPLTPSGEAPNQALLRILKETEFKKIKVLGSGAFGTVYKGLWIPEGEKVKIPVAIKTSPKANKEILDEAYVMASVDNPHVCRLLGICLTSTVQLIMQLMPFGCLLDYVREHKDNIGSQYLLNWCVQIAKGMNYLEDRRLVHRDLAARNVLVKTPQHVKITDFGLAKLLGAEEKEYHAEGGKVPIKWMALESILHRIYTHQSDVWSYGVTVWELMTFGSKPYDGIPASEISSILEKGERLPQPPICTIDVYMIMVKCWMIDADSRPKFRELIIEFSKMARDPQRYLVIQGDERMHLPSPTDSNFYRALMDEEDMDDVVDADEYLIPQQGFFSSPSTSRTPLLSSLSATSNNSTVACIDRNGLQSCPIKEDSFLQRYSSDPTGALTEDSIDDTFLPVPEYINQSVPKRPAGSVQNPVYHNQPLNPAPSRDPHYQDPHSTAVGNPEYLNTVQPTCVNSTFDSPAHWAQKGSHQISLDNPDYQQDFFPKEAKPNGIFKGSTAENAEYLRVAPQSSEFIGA
assayName: Inhibition of EGFR Exon19Del/T790M biochemical enzymatic activity (HTRF)
conditionDescription: EGFR Del19-T790M, 1 mM ATP, 1 h, room temperature, read-out: IC50 (nM) @Del19-T790M

- compound: "C[C@@H]1CCCOc2c(cnn2C)-c2cc(cn(C)c2=O)C(=O)Nc2nc3ccc(N4CCN(CC(F)(F)F)CC4)cc3n2C1 [Example A53]"
  IC50: "12 nM"
- compound: "C[C@@H]1CCCOc2c(cnn2C)-c2cc(cn(C)c2=O)C(=O)Nc2nc3ccc(N4CCC(N(C)C)C(F)C4)cc3n2C1 (stereo partly shown) [Example A38]"
  IC50: "1.6 nM"
- compound: "CN1CCC2(CCN(c3ccc4nc5n(c4c3)C34CCC(CN(CCOc6c(cnn6C)-c6cc(cn(C)c6=O)C(=O)N5)C3)C4)C2)C1 (single isomer, unassigned) [Example A81B]"
  IC50: "2.8 nM"
- compound: "Cc1cc2cc(n1)-c1cnn(C)c1OCCN1CCCCC(C1)n1c(nc3ccccc31)NC2=O (stereo not shown) [Example B4]"
  IC50: "33 nM"
- compound: "Cn1ncc2c1OCCN1CC3CCC(C3)(C1)n1c(nc3ccc(N4CCC(N5CC(F)C5)C4)cc31)NC(=O)c1cc-2c(=O)n(C)c1 (single isomer, unassigned) [Example A94B2]"
  IC50: "6.3 nM"
- compound: "C[C@@H]1CCCOc2c(cnn2C)-c2cc(cn(C)c2=O)C(=O)Nc2nc3ccc(N4CC5(CCN(C)C5)C4)cc3n2C1 [Example A42]"
  IC50: "5.4 nM"
- compound: "CN1CCC2(CC1)CCN(c1ccc3nc4n(c3c1)C13CCC(CN(CCOc5c(cnn5C)-c5cc(cn(C)c5=O)C(=O)N4)C1)C3)C2 (single isomer, unassigned) [Example A88A]"
  IC50: "> 5000 nM"
- compound: "Cn1ncc2c1OCCN1CC3CCC(CC3)(C1)n1c(nc3ccccc31)NC(=O)c1cc-2c(=O)n(C)c1 [Example A100]"
  IC50: "25 nM"
- compound: "Cn1ncc2c1OCCN(C1COC1)CCn1c(nc3ccccc31)NC(=O)c1cc-2c(=O)n(C)c1 [Example A5]"
  IC50: "704 nM"
- compound: "CN1CCOC2(C1)CN(c1ccc3nc4n(c3c1)C13CCC(CN(CCOc5c(cnn5C)-c5cc(cn(C)c5=O)C(=O)N4)C1)C3)C2 (single isomer, unassigned) [Example A86A]"
  IC50: "> 5000 nM"
- compound: "CN1CCC2(CC1)CN(c1ccc3nc4n(c3c1)C13CCC(CN(CCOc5c(cnn5C)-c5cc(cn(C)c5=O)C(=O)N4)C1)C3)C2 (single isomer, unassigned) [Example A77B]"
  IC50: "3.8 nM"
- compound: "C[C@@H]1CCCOc2ccc(F)cc2-c2cc(cn(C)c2=O)C(=O)Nc2nc3ccc(N4CCN(C)CC4)cc3n2C1 [Example A110]"
  IC50: "2.9 nM"
- compound: "CN1CCN(c2ccc3nc4n(c3c2)C(C)(C)CCCCOc2c(cnn2C)-c2cc(cn(C)c2=O)C(=O)N4)CC1 [Example A112]"
  IC50: "15 nM"
